Data origin, for the record: patent US12660819B2

tested on: Amaranthus retoflexus (AMARE); test: Pre-emergence Test (glasshouse, percentage damage to the plant); format: in vivo; settings: 1000 g/ha unless otherwise stated, five-point scale
QUANTITY_MEASURED: percentage damage to the plant, AMARE

I have this compound here, CCn1c(C)c(-c2ccc(F)cc2)c(=O)c(C(=O)O)c1-c1ccc(Cl)c(Cl)c1 , and I need its recorded percentage damage to the plant, AMARE. 5 (5=81-100%)

Next compound up: CCn1c(C)c(-c2cc(F)cc(OCC(F)(F)F)c2)c(=O)c(C(=O)O)c1-c1ccc(Cl)c(Cl)c1 1 (1=0-20%)

Next compound up: CCn1c(C)c(-c2ccc(F)c(Cl)c2)c(=O)c(C(=O)O)c1-c1ccc(Cl)c(Cl)c1 2 (2=21-40%)

Next compound up: CCn1c(C)c(-c2cccc(Cl)c2Cl)c(=O)c(C(=O)O)c1-c1ccc(Cl)cc1 1 (1=0-20%)

Next compound up: CCn1c(C)c(-c2ccc(F)c(F)c2)c(=O)c(C(=O)O)c1-c1ccc(Cl)c(Cl)c1 4 (4=61-80%)

Next compound up: CCn1c(C)c(-c2ccc(Cl)cc2)c(=O)c(C(=O)O)c1-c1ccnc(Cl)c1 1 (1=0-20%)

Next compound up: CCn1c(C)c(-c2ccc(OC)c(F)c2)c(=O)c(C(=O)O)c1-c1ccc(Cl)c(Cl)c1 2 (2=21-40%)

Next compound up: CCn1c(C)c(-c2cncc(F)c2)c(=O)c(C(=O)O)c1-c1ccc(Cl)c(Cl)c1 1 (1=0-20%)

---

system: Zea mays (ZEAMX); experiment: Pre-emergence Test (glasshouse, percentage damage to the plant); format: in vivo; details: 1000 g/ha unless otherwise stated, five-point scale
Field: percentage damage to the plant, ZEAMX. Provide a value for each of the molecules that follow.
Reply with just the number.

I have this molecule here, CCn1c(C)c(-c2ccnnc2)c(=O)c(C(=O)O)c1-c1ccc(Cl)cc1 , and I need its recorded percentage damage to the plant, ZEAMX. 0

Next molecule up: CCn1c(C)c(-c2ccc(Cl)s2)c(=O)c(C(=O)O)c1-c1ccc(Cl)cc1 0

Next molecule up: CCn1c(C)c(-c2ccc(C(F)(F)F)c(Cl)c2)c(=O)c(C(=O)O)c1-c1ccc(Cl)cc1 [Compound 170] 0

Next molecule up: CCn1c(C)c(-c2ccc(Cl)c(Cl)c2)c(=O)c(C(=O)O)c1-c1ccc(Cl)cc1 0

---

test system: Abutilon theophrasti (ABUTH); assay: Pre-emergence Test (glasshouse, percentage damage to the plant); assay type: in vivo; details: 1000 g/ha unless otherwise stated, five-point scale
Field: percentage damage to the plant, ABUTH. Provide a value for each of the molecules that follow.

I have this molecule here, CCn1c(C)c(-c2cccc(OC)c2F)c(=O)c(C(=O)O)c1-c1ccc(Cl)cc1 , and I need its recorded percentage damage to the plant, ABUTH. 3 (3=41-60%)

Next molecule up: CCOc1ccc(-c2c(C)n(CC)c(-c3ccc(Cl)c(Cl)c3)c(C(=O)O)c2=O)cc1 1 (1=0-20%)

Next molecule up: CCn1c(C)c(-c2ccc(F)cc2OC)c(=O)c(C(=O)O)c1-c1ccc(Cl)c(Cl)c1 4 (4=61-80%)

Next molecule up: CCn1c(C)c(-c2cc(Cl)ccc2Cl)c(=O)c(C(=O)O)c1-c1ccc(Cl)cc1 0

Next molecule up: CCn1c(C)c(-c2ccc(SC)cc2)c(=O)c(C(=O)O)c1-c1ccc(Cl)c(Cl)c1 1 (1=0-20%)

Next molecule up: CCn1c(C)c(-c2ccc(Cl)s2)c(=O)c(C(=O)O)c1-c1ccc(Cl)c(Cl)c1 2 (2=21-40%)

Next molecule up: CCOc1cc(-c2c(C)n(CC)c(-c3ccc(Cl)cc3)c(C(=O)O)c2=O)ccc1C(F)(F)F 0

Next molecule up: CCn1c(C)c(-c2cc(OC)cc(OC)c2)c(=O)c(C(=O)O)c1-c1ccc(Cl)c(Cl)c1 1 (1=0-20%)

Next molecule up: CCn1c(C)c(-c2cccs2)c(=O)c(C(=O)O)c1-c1ccc(Cl)c(Cl)c1 2 (2=21-40%)

Next molecule up: CCn1c(C)c(-c2ccc(F)cc2OC)c(=O)c(C(=O)O)c1-c1ccc(Cl)cc1 3 (3=41-60%)

Next molecule up: CCn1c(C)c(-c2cc(F)c(OC)c(F)c2)c(=O)c(C(=O)O)c1-c1ccc(Cl)c(Cl)c1 3 (3=41-60%)

Next molecule up: CCn1c(C)c(-c2cc(Cl)cc(Cl)c2)c(=O)c(C(=O)O)c1-c1ccc(Cl)cc1 0

Next molecule up: CCn1c(C)c(-c2ccnc(OC)c2)c(=O)c(C(=O)O)c1-c1ccc(Cl)c(Cl)c1 3 (3=41-60%)

Next molecule up: CCn1c(C)c(-c2cc(Cl)nc(OC(C)C)c2)c(=O)c(C(=O)O)c1-c1ccc(Cl)c(Cl)c1 2 (2=21-40%)

Next molecule up: CCn1c(C)c(-c2ccc(OC(F)(F)F)cc2)c(=O)c(C(=O)O)c1-c1ccc(F)cc1F 3 (3=41-60%)

Next molecule up: CCOc1cc(C)cc(-c2c(C)n(CC)c(-c3ccc(Cl)c(Cl)c3)c(C(=O)O)c2=O)c1 1 (1=0-20%)

Next molecule up: CCn1c(C)c(-c2ccc(OC)c(C(F)(F)F)c2)c(=O)c(C(=O)O)c1-c1ccc(Cl)c(Cl)c1 1 (1=0-20%)

Next molecule up: CCn1c(C)c(-c2ccnnc2)c(=O)c(C(=O)O)c1-c1ccc(Cl)cc1 0

Next molecule up: CCn1c(C)c(-c2ccc(C(F)(F)F)c(Cl)c2)c(=O)c(C(=O)O)c1-c1ccc(Cl)cc1 [Compound 171] 0

Next molecule up: CCn1c(C)c(-c2ccc(C#N)c(C(F)(F)F)c2)c(=O)c(C(=O)O)c1-c1ccc(Cl)cc1 3 (3=41-60%)

Next molecule up: CCn1c(-c2ccc(Cl)c(Cl)c2)c(C(=O)O)c(=O)c(-c2ccc(Cl)cc2)c1C(F)(F)F 4 (4=61-80%)

Next molecule up: CCn1c(C)c(-c2cc(F)ccc2Cl)c(=O)c(C(=O)O)c1-c1ccc(Cl)cc1 0

Next molecule up: CCOc1cc(-c2c(C)n(CC)c(-c3ccc(Cl)c(Cl)c3)c(C(=O)O)c2=O)ccc1C#N 1 (1=0-20%)

Next molecule up: CCn1c(C)c(-c2cccc(C(C)=O)c2)c(=O)c(C(=O)O)c1-c1ccc(Cl)c(Cl)c1 2 (2=21-40%)

Next molecule up: CCn1c(C)c(C2=CCCC2)c(=O)c(C(=O)O)c1-c1ccc(Cl)c(Cl)c1 1 (1=0-20%)

Next molecule up: CCn1c(C)c(-c2ccc(Cl)cc2)c(=O)c(C(=O)O)c1-c1ccnc(Cl)c1 3 (3=41-60%)

Next molecule up: CCn1c(C)c(-c2cc(C)cc(C#N)c2)c(=O)c(C(=O)O)c1-c1ccc(Cl)c(Cl)c1 1 (1=0-20%)

Next molecule up: CCn1c(C)c(-c2cc(C)cs2)c(=O)c(C(=O)O)c1-c1ccc(Cl)cc1 3 (3=41-60%)

Next molecule up: CCn1c(C)c(-c2ccc(Cl)cc2)c(=O)c(C(=O)O)c1-c1ccc(F)c(F)c1 3 (3=41-60%)

Next molecule up: CCn1c(C)c(-c2ccc(Cl)cc2)c(=O)c(C(=O)O)c1-c1ccc(Br)c(F)c1 2 (2=21-40%)

Next molecule up: CCOc1cc(-c2c(C)n(CC)c(-c3ccc(Cl)c(Cl)c3)c(C(=O)O)c2=O)cc(C(F)(F)F)c1 1 (1=0-20%)

Next molecule up: CCc1ccc(-c2c(C)n(CC)c(-c3ccc(Cl)c(Cl)c3)c(C(=O)O)c2=O)cc1 1 (1=0-20%)

Next molecule up: CCn1c(C)c(-c2cccc(C(F)(F)F)c2)c(=O)c(C(=O)O)c1-c1ccc(Cl)c(Cl)n1 0

---

test system: Setaria faberi (SETFA); assay: Post-emergence Test (glasshouse, percentage damage to the plant); assay type: in vivo; conditions: post-emergence spray, 1000 g/ha unless otherwise stated, evaluated after 13 days
QUANTITY_MEASURED: Post-emergence Test SETFA, percentage damage to the plant (five-point scale)

I have this compound here, CCn1c(C)c(-c2ccc(Cl)cc2)c(=O)c(C(=O)O)c1-c1ccc(F)cc1F [Compound 130] , and I need its recorded Post-emergence Test SETFA, percentage damage to the plant (five-point scale). 4 (4=61-80%)

Next compound up: CCn1c(C)c(-c2cncc(OC)c2)c(=O)c(C(=O)O)c1-c1ccc(Cl)c(Cl)c1 [Compound 61] 3 (3=41-60%)

Next compound up: CCn1c(C)c(-c2cc(F)cc(C#N)c2)c(=O)c(C(=O)O)c1-c1ccc(Cl)cc1 [Compound 190] 2 (2=21-40%)

Next compound up: CCn1c(C)c(-c2ccccc2F)c(=O)c(C(=O)O)c1-c1ccc(Cl)c(Cl)c1 [Compound 14] 4 (4=61-80%)

Next compound up: CCn1c(C)c(-c2cc(Cl)c(OC)c(OC)c2)c(=O)c(C(=O)O)c1-c1ccc(Cl)c(Cl)c1 [Compound 87] 3 (3=41-60%)

Next compound up: CCn1c(C)c(-c2cccc(Cl)c2Cl)c(=O)c(C(=O)O)c1-c1ccc(Cl)cc1 [Compound 172] 4 (4=61-80%)

Next compound up: CCn1c(C)c(-c2ccc(F)c(C#N)c2)c(=O)c(C(=O)O)c1-c1ccc(Cl)c(Cl)c1 [Compound 91] 4 (4=61-80%)

Next compound up: CCn1c(C)c(-c2ccsc2)c(=O)c(C(=O)O)c1-c1ccc(Cl)c(Cl)c1 [Compound 30] 3 (3=41-60%)

Next compound up: CCn1c(C)c(-c2cc(F)c(OC)c(F)c2)c(=O)c(C(=O)O)c1-c1ccc(Cl)c(Cl)c1 [Compound 84] 3 (3=41-60%)

Next compound up: CCn1c(C)c(-c2ccc(OC)c(OC)c2)c(=O)c(C(=O)O)c1-c1ccc(Cl)c(Cl)c1 [Compound 99] 4 (4=61-80%)

Next compound up: CCn1c(C)c(-c2ccc([N+](=O)[O-])cc2)c(=O)c(C(=O)O)c1-c1ccc(Cl)c(Cl)c1 [Compound 36] 4 (4=61-80%)

Next compound up: CCn1c(C)c(-c2ccc(Cl)cc2OC)c(=O)c(C(=O)O)c1-c1ccc(Cl)cc1 [Compound 184] 5 (5=81-100%)

Next compound up: CCn1c(C)c(-c2ccc(Cl)c(Cl)c2)c(=O)c(C(=O)O)c1-c1ccc(Cl)cc1 [Compound 195] 2 (2=21-40%)

Next compound up: CCn1c(C)c(-c2cc(F)cc(F)c2)c(=O)c(C(=O)O)c1-c1ccc(Cl)c(Cl)c1 [Compound 79] 2 (2=21-40%)

Next compound up: CCOc1cc(C)cc(-c2c(C)n(CC)c(-c3ccc(Cl)c(Cl)c3)c(C(=O)O)c2=O)c1 [Compound 103] 1 (1=0-20%)

Next compound up: CCn1c(C)c(-c2ccc(Cl)s2)c(=O)c(C(=O)O)c1-c1ccc(Cl)cc1 [Compound 166] 3 (3=41-60%)

Next compound up: CCn1c(C)c(-c2ccc(Cl)cc2Cl)c(=O)c(C(=O)O)c1-c1ccc(Cl)c(Cl)c1 [Compound 15] 5 (5=81-100%)

Next compound up: CCn1c(C)c(-c2ccc(S(=O)(=O)CC)cc2)c(=O)c(C(=O)O)c1-c1ccc(Cl)c(Cl)c1 [Compound 66] 3 (3=41-60%)

Next compound up: CCn1c(C)c(-c2ccnnc2)c(=O)c(C(=O)O)c1-c1ccc(Cl)cc1 [Compound 180] 0

Next compound up: CCn1c(C)c(-c2ccc(C#N)c(C(F)(F)F)c2)c(=O)c(C(=O)O)c1-c1ccc(Cl)cc1 [Compound 187] 2 (2=21-40%)

Next compound up: CCn1c(C)c(-c2ccc(S(C)(=O)=O)cc2)c(=O)c(C(=O)O)c1-c1ccc(Cl)c(Cl)c1 [Compound 32] 3 (3=41-60%)

Next compound up: CCOC(=O)c1c(-c2ccc(F)cc2F)n(CC)c(C)c(-c2ccc(Cl)cc2)c1=O [Compound 134] 4 (4=61-80%)

Next compound up: CCOC(=O)c1c(-c2ccc(Br)cc2F)n(CC)c(C)c(-c2ccc(Cl)cc2)c1=O [Compound 137] 3 (3=41-60%)

Next compound up: CCn1c(C)c(-c2cnccn2)c(=O)c(C(=O)O)c1-c1ccc(Cl)cn1 [Compound 168] 0

Next compound up: CCn1c(C)c(-c2cnc(F)c(F)c2)c(=O)c(C(=O)O)c1-c1ccc(Cl)c(Cl)c1 [Compound 59] 4 (4=61-80%)

Next compound up: CCn1c(C)c(-c2ccnc(OC)c2)c(=O)c(C(=O)O)c1-c1ccc(Cl)c(Cl)c1 [Compound 53] 4 (4=61-80%)

Next compound up: CCn1c(C)c(-c2cccc(C(F)(F)F)c2)c(=O)c(C(=O)O)c1-c1ccc(Cl)c(Cl)n1 [Compound 150] 1 (1=0-20%)

Next compound up: CCn1c(C)c(-c2ccc(OC)nc2)c(=O)c(C(=O)O)c1-c1ccc(Cl)c(Cl)c1 [Compound 126] 5 (5=81-100%)

Next compound up: CCn1c(C)c(-c2cccs2)c(=O)c(C(=O)O)c1-c1ccc(Cl)cc1 [Compound 165] 1 (1=0-20%)

Next compound up: CCn1c(C)c(-c2ccc(OC)cc2)c(=O)c(C(=O)O)c1-c1ccc(Cl)c(Cl)c1 [Compound 18] 5 (5=81-100%)

Next compound up: CCn1c(C)c(-c2cncn2C)c(=O)c(C(=O)O)c1-c1ccc(Cl)c(Cl)c1 [Compound 40] 1 (1=0-20%)
